Target: cGMP-specific 3',5'-cyclic phosphodiesterase (Canis lupus familiaris)
Assay: Inhibitory activity against phosphodiesterase 5 (PDE5) isolated from canine lung
measurement_name: IC50 (nM)

Here are 2 compounds together with their reported answers.
smiles_entry: COC(=O)c1c(-c2cc(OC)c(OC)c(OC)c2)c2ccc(OCc3cnccn3)nc2c(=O)n1Cc1ccnc(C)c1.Cl
val: 0.29
--
smiles_entry: COC(=O)c1c(-c2cc(OC)c(OC)c(OC)c2)c2ccnc(OCc3ccccn3)c2c(=O)n1Cc1ccnc(C)c1
val: 0.31

(1) COC(=O)c1c(-c2cc(OC)c(OC)c(OC)c2)c2ccnc(OCc3ncccn3)c2c(=O)n1Cc1ccnc(C)c1.Cl
(2) COC(=O)c1c(-c2cc(OC)c(OC)c(OC)c2)c2ccnc(N3CCN(C)CC3)c2c(=O)n1Cc1ccnc(C)c1
Task: Dear colleague, could you let me know whether 1 or 2 has the lower recorded IC50? Thanks. Respond using the label that marks the chosen record.
Output: 1

###

Target: cGMP-specific 3',5'-cyclic phosphodiesterase (Canis lupus familiaris, UniProt O77746)
Test: Inhibitory activity against phosphodiesterase 5 (PDE5) isolated from canine lung
pIC50: −log10 of the molar value.
measurement_name: pIC50

smiles_entry: COC(=O)c1c(-c2cc(OC)c(OC)c(OC)c2)c2ccnc(NCCO)c2c(=O)n1Cc1ccnc(C)c1.Cl
val: 8.59

(A) COC(=O)c1c(-c2cc(OC)c(OC)c(OC)c2)c2ccc(OCc3ccccn3)nc2c(=O)n1Cc1cccnc1.Cl
(B) COC(=O)c1c(-c2cc(OC)c(OC)c(OC)c2)c2ccc(OCc3ccccn3)nc2c(=O)n1Cc1ccnc(C)c1.Cl
(C) COC(=O)c1c(-c2cc(OC)c(OC)c(OC)c2)c2ccnc(OCCc3ccccn3)c2c(=O)n1Cc1ccnc(C)c1.Cl
Task: Would you mind ranking these compounds by ascending pIC50? API: response body holds the labels in the requested order.
Output: A, C, B

###

Molecular target: Phosphodiesterase 6
Experiment: Inhibitory activity against Phosphodiesterase 6 isolated from bovine retina
Format: protein assay
measurement_name: IC50 (nM)

smiles_entry: COC(=O)c1c(-c2cc(OC)c(OC)c(OC)c2)c2ccnc(N3CCN(C)CC3)c2c(=O)n1Cc1ccnc(C)c1
IC50 (nM): 1400
//
smiles_entry: COC(=O)c1c(-c2cc(OC)c(OC)c(OC)c2)c2ccnc(NCCO)c2c(=O)n1Cc1ccnc(C)c1.Cl
IC50 (nM): 280
//
smiles_entry: COC(=O)c1c(-c2cc(OC)c(OC)c(OC)c2)c2ccnc(OCc3ccccn3)c2c(=O)n1Cc1ccnc(C)c1
IC50 (nM): 4.4

(1) COC(=O)c1c(-c2cc(OC)c(OC)c(OC)c2)c2ccc(OCc3ccccn3)nc2c(=O)n1Cc1ccnc(C)c1.Cl
(2) COC(=O)c1c(-c2cc(OC)c(OC)c(OC)c2)c2ccc(OCc3ccccn3)nc2c(=O)n1Cc1cccnc1.Cl
Task: Of the two listed items, 1 and 2 , which carries the larger IC50 figure? Respond using the label that marks the chosen record.
Output: 2
(2: 38 nM, 1: 8.6 nM)

(P) COC(=O)c1c(-c2cc(OC)c(OC)c(OC)c2)c2ccc(OCc3ccccn3)nc2c(=O)n1Cc1ccncc1.Cl
(Q) COC(=O)c1c(-c2cc(OC)c(OC)c(OC)c2)c2ccc(OCc3ccccn3)nc2c(=O)n1-c1ccc(N)cc1.Cl
Task: Dear colleague, could you let me know whether P or Q has the lower recorded IC50? Thanks. Respond using the label that marks the chosen record.
Output: P
(P: 11 nM, Q: 22 nM)
